Assay: Therapeutic index, ratio of HC50 for human RBC to MIC for Bacillus subtilis DSM 347
Format: toxicity
Conditions: human red blood cells versus Bacillus subtilis DSM 347
measurementLabel: selectivity ratio

* Cc1sc2cc1C1=C(CCC1)c1cc(sc1C)C(=O)[C@H]1CCCN1C(=O)[C@H](C(C)C)NC(=O)[C@H](CCCCN)NC(=O)[C@H](CC(C)C)NC(=O)[C@H](CCCCN)NC(=O)[C@@H]1CCCN1C(=O)[C@@H](Cc1ccccc1)NC(=O)[C@H](CCCCN)NC(=O)[C@H](C(C)C)NC(=O)[C@H](CCCCN)NC(=O)[C@H](CC(C)C)NC2=O | 41
* Cc1sc2cc1C1=C(CCC1)c1cc(sc1C)C(=O)[C@H]1CCCN1C(=O)[C@H](CCCCN)NC(=O)[C@H](CC(C)C)NC(=O)[C@H](CCCCN)NC(=O)[C@H](C(C)C)NC(=O)[C@@H]1CCCN1C(=O)[C@@H](Cc1ccccc1)NC(=O)[C@H](CC(C)C)NC(=O)[C@H](CCCCN)NC(=O)[C@H](C(C)C)NC(=O)[C@H](CCCCN)NC2=O | 4
* CC(C)C[C@@H]1NC(=O)[C@H](CCCN)NC(=O)[C@H](CCCN)NC(=O)C2=CC3=C4CCCC4=C4C=C(S[C@]4(C)[C@@]3(C)S2)C(=O)[C@H]2CCCN2C(=O)[C@H](CC(C)C)NC(=O)[C@H](CCCN)NC(=O)[C@H](C(C)C)NC(=O)[C@@H]2CCCN2C(=O)[C@@H](Cc2ccccc2)NC1=O | 5.7
* Cc1sc2cc1C1=C(CCC1)c1cc(sc1C)C(=O)[C@H]1CCCN1C(=O)[C@H](C(C)C)NC(=O)[C@H](CCCN)NC(=O)[C@H](C(C)C)NC(=O)[C@@H]1CCCN1C(=O)[C@@H](Cc1ccccc1)NC(=O)[C@H](C(C)C)NC(=O)[C@H](CCCN)NC(=O)[C@H]([C@H](O)C(C)C)NC2=O | 28
* CC(C)C(=O)NCC[C@@H]1NC(=O)C2=CC3=C4CCCC4=C4C=C(S[C@]4(C)[C@@]3(C)S2)C(=O)[C@H]2CCCN2C(=O)[C@H](C(C)C)NC(=O)[C@H](CCCN)NC(=O)[C@H](C(C)C)NC(=O)[C@@H]2CCCN2C(=O)[C@@H](Cc2ccccc2)NC(=O)[C@H](C(C)C)NC(=O)[C@H](CCCN)NC1=O | 8.1

====

Test: Selective ratio of HC50 for human RBC to IC50 for human HeLa cells
Assay type: toxicity
Details: human red blood cells versus HeLa cells
Below, each of the compounds is paired with its reported selectivity ratio value.
measurementLabel: selectivity ratio

* CC(C)[C@@H]1NC(=O)C2=CC3=C4CCCC4=C4C=C(S[C@]4(C)[C@@]3(C)S2)C(=O)[C@H]2CCCN2C(=O)[C@H]([C@@H](C)O)NC(=O)[C@H](CCCN)NC(=O)[C@H](C(C)C)NC(=O)[C@@H]2CCCN2C(=O)[C@@H](Cc2ccccc2)NC(=O)[C@H](C(C)C)NC(=O)[C@H](CCCN)NC1=O | 2.7
* Cc1sc2cc1C1=C(CCC1)c1cc(sc1C)C(=O)[C@H]1CCCN1C(=O)[C@H](C(C)C)NC(=O)[C@H](CCCN)NC(=O)[C@H]([C@H](O)C(C)C)NC(=O)[C@@H]1CCCN1C(=O)[C@@H](Cc1ccccc1)NC(=O)[C@H](C(C)C)NC(=O)[C@H](CCCN)NC(=O)[C@H](C(C)C)NC2=O | 2.2
* CC(C)[C@@H]1NC(=O)[C@H](CCCN)NC(=O)[C@H]([C@H](O)C(C)C)NC(=O)C2=CC3=C4CCCC4=C4C=C(S[C@]4(C)[C@@]3(C)S2)C(=O)[C@H]2CCCN2C(=O)[C@H](C(C)C)NC(=O)[C@H](CCCN)NC(=O)[C@H](C(C)C)NC(=O)[C@@H]2CCCN2C(=O)[C@@H](Cc2ccccc2)NC1=O | 1.2

====

Listed here are compounds together with their documented selectivity ratio.
Assay: Therapeutic index, ratio of HC50 for human RBC to MIC for Escherichia coli DSM 1103
Assay type: toxicity
Conditions: human red blood cells versus Escherichia coli DSM 1103
measurementLabel: selectivity ratio

* CC(C)C[C@@H]1NC(=O)[C@H](CCCCN)NC(=O)[C@H](C(C)C)NC(=O)C2=CC3=C4CCCC4=C4C=C(S[C@]4(C)[C@@]3(C)S2)C(=O)[C@H]2CCCN2C(=O)[C@H](C(C)C)NC(=O)[C@H](CCCCN)NC(=O)[C@H](C(C)C)NC(=O)[C@H](CC(C)C)NC(=O)[C@@H](CCCCN)NC(=O)[C@@H]2CCCN2C(=O)[C@@H](Cc2ccccc2)NC(=O)[C@H](C(C)C)NC(=O)[C@H](CCCCN)NC1=O | 0.2
* Cc1sc2cc1C1=C(CCC1)c1cc(sc1C)C(=O)[C@H]1CCCN1C(=O)[C@H](C(C)C)NC(=O)[C@H](CCCCN)NC(=O)[C@H](C(C)C)NC(=O)[C@H](CC(C)C)NC(=O)[C@@H](CCCCN)NC(=O)[C@@H]1CCCN1C(=O)[C@@H](Cc1ccccc1)NC(=O)[C@H](C(C)C)NC(=O)[C@H](CCCCN)NC(=O)[C@H](CC(C)C)NC(=O)[C@H](CCCCN)NC(=O)[C@H](C(C)C)NC2=O | 0.1

====

# Lookup of reported HC50 at 0.5 h keyed by entry
Test: Hemolytic activity against human RBC assessed as hemolysis after 30 mins by colorimetric method
Type: ADME, cell-based, Erythrocyte
Conditions: human red blood cells (erythrocytes)
measurementLabel: HC50 at 0.5 h (µM)

• CC(C)[C@@H]1NC(=O)C2=CC3=C4CCCC4=C4C=C(S[C@]4(C)[C@@]3(C)S2)C(=O)[C@H]2CCCN2C(=O)[C@H](Cc2ccc(O)cc2)NC(=O)[C@H](CCCN)NC(=O)[C@H](C(C)C)NC(=O)[C@@H]2CCCN2C(=O)[C@@H](Cc2ccccc2)NC(=O)[C@H](Cc2ccc(O)cc2)NC(=O)[C@H](CCCN)NC1=O = 11
• Cc1sc2cc1C1=C(CCC1)c1cc(sc1C)C(=O)[C@H]1CCCN1C(=O)[C@H](C)NC(=O)[C@H](CCCN)NC(=O)[C@H](C(C)C)NC(=O)[C@@H]1CCCN1C(=O)[C@@H](Cc1ccccc1)NC(=O)[C@H](CC(C)C)NC(=O)[C@H](CCCN)NC(=O)[C@H](C)NC2=O = 87
• Cc1sc2cc1C1=C(CCC1)c1cc(sc1C)C(=O)[C@H]1CCCN1C(=O)[C@H](C(C)C)NC(=O)[C@H](CCCN)NC(=O)[C@H](C(C)C)NC(=O)[C@@H]1CCCN1C(=O)[C@@H](Cc1ccccc1)NC(=O)[C@H](C(C)C)NC(=O)[C@H](CCCN)NC(=O)[C@H]([C@H](O)C(C)C)NC2=O = 56
• Cc1sc2cc1C1=C(CCC1)c1cc(sc1C)C(=O)[C@H]1CCCN1C(=O)[C@H](C(C)C)NC(=O)[C@H](CCCN)NC(=O)[C@H]([C@H](O)C(C)C)NC(=O)[C@@H]1CCCN1C(=O)[C@@H](Cc1ccccc1)NC(=O)[C@H](C(C)C)NC(=O)[C@H](CCCN)NC(=O)[C@H]([C@H](O)C(C)C)NC2=O = 160

====

Below, each entry is listed alongside its reported selectivity ratio.
Test: Therapeutic index, ratio of HC50 for human RBC to MIC for Escherichia coli DSM 1103
Format: toxicity
Conditions: human red blood cells versus Escherichia coli DSM 1103
measurementLabel: selectivity ratio

- CC(C)C[C@@H]1NC(=O)C2=CC3=C4CCCC4=C4C=C(S[C@]4(C)[C@@]3(C)S2)C(=O)[C@H]2CCCN2C(=O)[C@H](C(C)C)NC(=O)[C@H](CCCCN)NC(=O)[C@H](CC(C)C)NC(=O)[C@H](CCCCN)NC(=O)[C@@H]2CCCN2C(=O)[C@@H](Cc2ccccc2)NC(=O)[C@H](CCCCN)NC(=O)[C@H](C(C)C)NC(=O)[C@H](CCCCN)NC1=O: 0.5
- Cc1sc2cc1C1=C(CCC1)c1cc(sc1C)C(=O)[C@H]1CCCN1C(=O)[C@H]([C@@H](C)O)NC(=O)[C@H](C13CC4CC(CC(C4)C1)C3)NC(=O)[C@H](CCCN)NC(=O)[C@@H]1CCCN1C(=O)[C@@H](Cc1ccccc1)NC(=O)[C@H](CCCN)NC(=O)[C@H](C13CC4CC(CC(C4)C1)C3)NC(=O)[C@H](CCCN)NC2=O: 0.2
- CC(C)[C@@H]1NC(=O)C2=CC3=C4CCCC4=C4C=C(S[C@]4(C)[C@@]3(C)S2)C(=O)[C@H]2CCCN2C(=O)[C@H](C(C)C)NC(=O)[C@H](CCCN)N(C)C(=O)[C@H](C(C)C)NC(=O)[C@@H]2CCCN2C(=O)[C@@H](Cc2ccccc2)N(C)C(=O)[C@H](C(C)C)NC(=O)[C@H](CCCN)NC1=O: 1

Source listed as ChEMBL document CHEMBL4257585.
